testTarget: ATP-dependent translocase ABCB1 (Homo sapiens) (UniProt P08183)
Sequence (P08183 whole entry, looked up): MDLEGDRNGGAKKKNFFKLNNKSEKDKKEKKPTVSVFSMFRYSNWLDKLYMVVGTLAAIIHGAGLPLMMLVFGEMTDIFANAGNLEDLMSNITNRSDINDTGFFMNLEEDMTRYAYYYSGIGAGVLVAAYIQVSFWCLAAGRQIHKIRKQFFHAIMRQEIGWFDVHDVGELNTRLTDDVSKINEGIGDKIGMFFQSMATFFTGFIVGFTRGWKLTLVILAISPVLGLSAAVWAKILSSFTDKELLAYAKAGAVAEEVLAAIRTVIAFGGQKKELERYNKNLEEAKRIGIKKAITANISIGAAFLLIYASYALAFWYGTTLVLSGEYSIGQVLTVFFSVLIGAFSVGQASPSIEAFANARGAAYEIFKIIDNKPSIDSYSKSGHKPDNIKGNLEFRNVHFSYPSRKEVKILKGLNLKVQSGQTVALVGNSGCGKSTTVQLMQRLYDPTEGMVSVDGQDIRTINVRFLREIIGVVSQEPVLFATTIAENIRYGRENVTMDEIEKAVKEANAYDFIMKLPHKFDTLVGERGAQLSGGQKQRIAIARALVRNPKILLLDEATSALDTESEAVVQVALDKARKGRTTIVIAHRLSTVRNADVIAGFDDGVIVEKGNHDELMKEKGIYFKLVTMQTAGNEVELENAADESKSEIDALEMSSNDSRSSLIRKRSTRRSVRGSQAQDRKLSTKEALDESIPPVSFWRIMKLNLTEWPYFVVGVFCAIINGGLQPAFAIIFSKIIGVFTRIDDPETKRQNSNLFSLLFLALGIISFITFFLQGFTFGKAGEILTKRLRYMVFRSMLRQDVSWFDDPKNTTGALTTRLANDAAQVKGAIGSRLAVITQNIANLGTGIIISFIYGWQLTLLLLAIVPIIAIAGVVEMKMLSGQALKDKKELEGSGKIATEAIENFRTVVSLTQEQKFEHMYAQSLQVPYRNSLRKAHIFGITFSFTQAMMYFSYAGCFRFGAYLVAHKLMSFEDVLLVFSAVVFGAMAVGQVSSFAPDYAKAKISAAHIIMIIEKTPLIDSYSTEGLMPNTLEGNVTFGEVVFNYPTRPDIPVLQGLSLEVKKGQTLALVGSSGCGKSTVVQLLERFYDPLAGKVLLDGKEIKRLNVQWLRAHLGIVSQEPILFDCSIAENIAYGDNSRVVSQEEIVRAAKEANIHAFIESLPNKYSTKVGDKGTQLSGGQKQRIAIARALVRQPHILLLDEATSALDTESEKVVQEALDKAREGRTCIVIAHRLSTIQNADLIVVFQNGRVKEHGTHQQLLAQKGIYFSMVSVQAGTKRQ
assayComment: P-glycoprotein substrate transport blockade – cell-based (AID 377)
conditionContext: MDR1-expressing cells, fluorescent substrate accumulation slope; hits give high values; concentration not given here
Inconclusive results are not listed.
reportedMetric: fluorescence slope change (%)
One number for each entry, in %.

[
  {
    "molecule": "COC(=O)Nc1nc2ccc(C(=O)c3cccs3)cc2[nH]1",
    "reportedMetric": "fluorescence slope change",
    "reportedResult": 103
  },
  {
    "molecule": "CCCCN(CCCC)CCCOC(=O)c1ccc(N)cc1",
    "reportedMetric": "fluorescence slope change",
    "reportedResult": 85.2
  }
]

Dear colleague, could you send me fluorescence slope change for each of the items below? Thanks.
1. OC(CCN1CCCCC1)(c1ccccc1)c1ccccc1
2. Cc1scc2c1N(C(=O)CN1CCN(C)CC1)c1ccccc1NC2=O

[reply]
18.2
65.1

The following molecules each have a reported value; give each one's fluorescence slope change.
1. c1ccc(CN(CC2=NCCN2)c2ccccc2)cc1
2. Cn1c(=O)c2c(ncn2CCO)n(C)c1=O
3. CC(C)COCC(CN(Cc1ccccc1)c1ccccc1)N1CCCC1 (stereo not drawn)
4. CN1CCN(C(c2ccccc2)c2ccccc2)CC1
5. CN1Cc2c(N)cccc2C(c2ccccc2)C1 (stereo not drawn)

[reply]
118
50.2
131
59.4
80.5

----------
assayComment: compounds altering circadian rhythm period length – cell-based, LOPAC library, luminescence reporter (AID 2774);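 also: values are relative to mean of DMSO wells on each plate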
conditionContext: circadian reporter cells, at 7 µM, actives lie on both sides
Active and inactive are the calls of the source. No rule for the calls is given here.
Exercise: state measured period change for each of the compounds provided.

List the reported period change of each compound below.
1. O=C(c1ccc(F)cc1)C1CCN(CCn2c(=O)[nH]c3ccccc3c2=O)CC1
2. CN1CCN(CCCN2c3ccccc3Sc3ccc(Cl)cc32)CC1
3. COc1ccccc1N1CCN(CC(O)COc2cccc3ccccc23)CC1 (configuration not stated)

[reply]
["0 h (inactive)", "0.055 h (inactive)", "0.04 h (inactive)"]

----------
assayComment: HCT116 colon cancer cell growth inhibition, primary screen, CellTiter-Glo luminescence, NPC library (AID 1117342)
conditionContext: at 20 µM (top of the series)
Activity calls are given as the source filed them.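 The calls were made as follows: active = compounds that lower survival of HCT116 colon cancer cells in the luminescence readout, no numeric limit stated; inactive = the rest.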
Response enum: active, inactive

Take a look at these entries with their results.
[
  {
    "molecule": "COc1cc2c(cc1OC)C(=O)C(CC1CCN(Cc3ccccc3)CC1)C2 (stereo unspecified)",
    "labelClass": "inactive"
  },
  {
    "molecule": "CC(=O)[C@]1(O)Cc2c(O)c3c(c(O)c2[C@@H](O[C@H]2C[C@H](N)[C@H](O)[C@H](C)O2)C1)C(=O)c1ccccc1C3=O",
    "labelClass": "active"
  },
  {
    "molecule": "CC(=O)O[C@]1(C(C)=O)CC[C@H]2[C@@H]3C=C(Cl)C4=CC(=O)[C@@H]5C[C@@H]5[C@]4(C)[C@H]3CC[C@@]21C",
    "labelClass": "inactive"
  },
  {
    "molecule": "C[C@]12C[C@H](O)[C@H]3[C@@H](CCC4=CC(=O)CC[C@@]43C)[C@@H]1CC[C@@H]2C(=O)CO",
    "labelClass": "inactive"
  },
  {
    "molecule": "NC(=O)c1ccc([N+](=O)[O-])cc1Cl",
    "labelClass": "inactive"
  },
  {
    "molecule": "CCCN[C@H]1CCc2nc(N)sc2C1",
    "labelClass": "inactive"
  },
  {
    "molecule": "Cc1[nH]c(=O)c(C#N)cc1-c1ccncc1",
    "labelClass": "inactive"
  },
  {
    "molecule": "Nc1ncnc2c1ncn2[C@@H]1O[C@H](COP(=O)(O)O)[C@@H](O)[C@H]1O",
    "labelClass": "inactive"
  },
  {
    "molecule": "C[C@@H]1CN(CCCn2c3ccccc3c3ccccc32)C[C@H](C)N1",
    "labelClass": "active"
  },
  {
    "molecule": "Nc1ccc(S(=O)(=O)Nc2nccs2)cc1",
    "labelClass": "inactive"
  }
]

[ask] Dear all, I need the recorded test outcome for COc1cc2c(N3CCN(C(=O)Nc4ccc(OC(C)C)cc4)CC3)ncnc2cc1OCCCN1CCCCC1 , thank you.
[reply] active

[ask] Called result for CN(C)CCCSc1ccccc1NC(=O)/C=C/c1ccccc1
[reply] inactive

[ask] Look up the recorded call for CCO/C([O-])=N/c1c[n+](N2CCOCC2)no1 in this test.
[reply] inactive

[ask] Returns: the outcome recorded for Cc1onc(-c2ccccc2Cl)c1C(=O)N[C@@H]1C(=O)N2[C@@H]1SC(C)(C)[C@@H]2C(=O)O in this assay.
[reply] inactive

[ask] Which outcome did this test record for the molecule NS(=O)(=O)c1cc(C(=O)O)c(NCc2ccco2)cc1Cl ?
[reply] inactive

[ask] Could you check what this test reported for Cc1[nH]cnc1CN1CCc2c(c3ccccc3n2C)C1=O ?
[reply] inactive

[ask] What classification did COc1ccc(C(=O)NCc2ccc(OCCN(C)C)cc2)cc1OC end up with in this test?
[reply] inactive

[ask] Which outcome did this test record for the molecule CN(Cc1cc(Br)cc(Br)c1N)C1CCCCC1 ?
[reply] active

[ask] Please indicate how the test categorized NC1CCN(c2nc3c(cc2F)c(=O)c(C(=O)O)cn3-c2ccc(F)cc2F)C1 (stereo unspecified) .
[reply] inactive

[ask] Tell me the assay call for Cc1c(O)cccc1C(=O)N[C@@H](CSc1ccccc1)[C@H](O)CN1C[C@H]2CCCC[C@H]2C[C@H]1C(=O)NC(C)(C)C please.
[reply] active

[ask] Please indicate how the test categorized Oc1c(I)cc(I)c2cccnc12 .
[reply] active
